The measured values listed here are drawn from paper PMC5866752.

Biological target: T1, His6-UEV (ubiquitin E2 variant domain of the human TSG101 protein) (human, UniProt Q99816 2-145)
T1 sequence: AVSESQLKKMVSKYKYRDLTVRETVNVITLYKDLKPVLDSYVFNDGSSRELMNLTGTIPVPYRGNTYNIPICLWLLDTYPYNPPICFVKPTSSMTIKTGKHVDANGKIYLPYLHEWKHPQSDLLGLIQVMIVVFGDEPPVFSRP
Assay: ELISA
VALUE KIND: pEC50
pEC50 field: float, defined as -log10 of concentration (mol/L).

QUERY: Provide only the value of recorded pEC50 for GST-p6 (GST-tagged HIV p6 protein) (natural protein) LQSRPEPTAPPEESFRSGVETTTPPQKQEPIDKELYPLTSLRSLFGNDPSSQ
RESULT: 6.02
